# experimental.target: T1, AFP158/HLA-A*02:01 complex (human)
# T1 construct: flowed over the chip in SPR; also called AFP158 pro
# experimental.protocol: SPR, scFv captured, pMHC in flow;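 also: complex injected at several concentrations over crude scFv, association then running-buffer dissociation, KD estimated from kinetic on- and off-rate constants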
endpoint.label: Kd (nM)
Provide the reading as a plain figure in nM.

[[record]]
binder = "HP110T (scFv, AS170036 VL1VH1 scFv mutein) scFv: QSALTQPRSVSGSPGQSVTISCAGTSSDVGSENYVSWYQQHPGKAPKLMIYQVNKRASGVPDRFSGSKSGNTASLTISGLQAEDEADYYCASYRSSDHNIVFGGGTKLTVLGGGGSGGGGSGGGGSEVQLVESGGGLVQPGGSLRLSCAASGFTFSSYAMSWVRQAPGKGLEWVSTINSGTGSPYYADSVKGRFTISRDNSKNTLYLQMNSLRAEDTAVYYCAKNFFDGSWFLGPTAMDYWGQGTLVTVSSHHHHHH"
observed = 180


For record HS57W (scFv, AS170036 VL1VH1 scFv mutein) scFv: QSALTQPRSVSGSPGQSVTISCAGTSSDVGSENYVSWYQQHPGKAPKLMIYQVNKRASGVPDRFSGSKSGNTASLTISGLQAEDEADYYCASYRSSDHNIVFGGGTKLTVLGGGGSGGGGSGGGGSEVQLVESGGGLVQPGGSLRLSCAASGFTFSSYAMSWVRQAPGKGLEWVSTINSGTGWPYYADSVKGRFTISRDNSKNTLYLQMNSLRAEDTAVYYCAKNFFDGSWFLGPPAMDYWGQGTLVTVSSHHHHHH the listed Kd is 380

For record HG56T (scFv, AS170036 VL1VH1 scFv mutein) scFv: QSALTQPRSVSGSPGQSVTISCAGTSSDVGSENYVSWYQQHPGKAPKLMIYQVNKRASGVPDRFSGSKSGNTASLTISGLQAEDEADYYCASYRSSDHNIVFGGGTKLTVLGGGGSGGGGSGGGGSEVQLVESGGGLVQPGGSLRLSCAASGFTFSSYAMSWVRQAPGKGLEWVSTINSGTTSPYYADSVKGRFTISRDNSKNTLYLQMNSLRAEDTAVYYCAKNFFDGSWFLGPPAMDYWGQGTLVTVSSHHHHHH the listed Kd is 340
